# Target Under Test: human TLR7 (Homo sapiens, UniProt Q9NYK1)
# Sequence (Q9NYK1 27-1049): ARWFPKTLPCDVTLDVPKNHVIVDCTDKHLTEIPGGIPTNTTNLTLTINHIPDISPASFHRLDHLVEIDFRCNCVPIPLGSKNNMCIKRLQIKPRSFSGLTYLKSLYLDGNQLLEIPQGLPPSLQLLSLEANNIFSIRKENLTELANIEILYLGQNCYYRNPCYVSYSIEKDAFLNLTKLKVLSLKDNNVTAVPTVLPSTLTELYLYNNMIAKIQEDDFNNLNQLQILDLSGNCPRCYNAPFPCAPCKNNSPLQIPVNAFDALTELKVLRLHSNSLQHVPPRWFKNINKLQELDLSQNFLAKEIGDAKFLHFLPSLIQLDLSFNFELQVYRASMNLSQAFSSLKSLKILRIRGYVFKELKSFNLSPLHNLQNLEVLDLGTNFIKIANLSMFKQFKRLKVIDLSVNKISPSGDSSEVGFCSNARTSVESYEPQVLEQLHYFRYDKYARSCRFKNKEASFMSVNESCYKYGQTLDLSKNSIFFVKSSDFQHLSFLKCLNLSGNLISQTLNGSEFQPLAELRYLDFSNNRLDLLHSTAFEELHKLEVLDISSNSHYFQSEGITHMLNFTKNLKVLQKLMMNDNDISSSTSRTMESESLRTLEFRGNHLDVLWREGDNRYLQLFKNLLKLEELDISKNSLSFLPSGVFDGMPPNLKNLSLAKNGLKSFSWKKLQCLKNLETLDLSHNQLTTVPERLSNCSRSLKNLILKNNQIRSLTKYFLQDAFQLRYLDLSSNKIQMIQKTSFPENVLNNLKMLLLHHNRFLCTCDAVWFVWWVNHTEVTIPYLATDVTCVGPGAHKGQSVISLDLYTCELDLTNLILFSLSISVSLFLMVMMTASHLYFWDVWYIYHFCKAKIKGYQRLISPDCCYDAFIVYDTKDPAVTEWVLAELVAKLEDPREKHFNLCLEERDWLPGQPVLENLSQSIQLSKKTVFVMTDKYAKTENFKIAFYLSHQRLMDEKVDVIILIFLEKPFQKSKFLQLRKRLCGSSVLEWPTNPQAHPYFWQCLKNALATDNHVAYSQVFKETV
# Procedure Text: TLR7 inhibition reporter assay (HEK-Blue SEAP)
# Details: cells overexpressing human TLR7, SEAP reporter, stimulated with gardiquimod 7.5 μM, 22 hour incubation
Experimental Endpoint: IC50

For the 4 compounds below, give their IC50 values.
1. CCc1c(-c2ccc(OC)c(OC)c2)[nH]c2cnc(-c3nnc(C[C@H]4CCCN4)o3)nc12 [Example 47]
2. Cc1c(-c2[nH]c3cnc(C4CCN(C5COC5)CC4)nc3c2C(C)C)cn2ncnc2c1C [Example 19]
3. CCc1c(-c2ccc(OC)c(OC)c2)[nH]c2nnc(C3CCNCC3)cc12 [Example 1]
4. CCc1c(-c2ccc(OC)c(OC)c2)[nH]c2cnc(-c3nnc([C@H]4CCNC4)o3)nc12 [Example 44]

Output:
1000 to 50000 nM
< 100 nM
100 to 1000 nM
1000 to 50000 nM

For the 6 compounds below, give their IC50 values.
1. CCc1c(-c2ccc(OC)c(OC)c2)[nH]c2cnc(-c3nnc([C@H]4CCCNC4)o3)nc12 [Example 40]
2. CNC(=O)CN1CCC(c2ncc3[nH]c(-c4cc(OC)c5ncnn5c4)c(C(C)C)c3n2)CC1 [Example 35]
3. CCc1c(-c2ccc(OC)c(OC)c2)[nH]c2cnc(-c3nnc(C[C@@H]4CCCCN4)o3)nc12 [Example 46]
4. Cc1cc(-c2[nH]c3cnc(C4CCN(CC(C)(C)O)CC4)nc3c2C(C)C)cn2ncnc12 [Example 20]
5. CCc1c(-c2ccc(OC)c(OC)c2)[nH]c2cnc(-c3nnc(CCCN(C)C)o3)nc12 [Example 37]
6. CCc1c(-c2ccc(OC)c(OC)c2)[nH]c2cnc(C3CCN(Cc4c[nH]cn4)CC3)nc12 [Example 51]

Output:
1: 100 to 1000 nM; 2: < 100 nM; 3: 1000 to 50000 nM; 4: < 100 nM; 5: 1000 to 50000 nM; 6: 100 to 1000 nM

For the 3 compounds below, give their IC50 values.
1. Cc1c(-c2[nH]c3cnc(C4CCN(C(=O)CN(C)C)CC4)nc3c2C(C)C)cn2ncnc2c1C [Example 28]
2. Cc1cc(-c2[nH]c3cnc(C4CCN(C5COC5)CC4)nc3c2C(C)C)cn(C)c1=O [Example 8]
3. Cc1c(-c2[nH]c3cnc(C4CCN(C5CCOCC5)CC4)nc3c2C(C)C)cn2ncnc2c1C [Example 13]

Output:
1: < 100 nM; 2: < 100 nM; 3: < 100 nM

For the 2 compounds below, give their IC50 values.
1. Cc1cc(-c2[nH]c3cnc(C4CCNCC4)nc3c2C(C)C)cn(C)c1=O [Example 7]
2. COc1ccc(-c2[nH]c3cnc(C4CCN(C(=O)CN(C)C)CC4)nc3c2C(C)C)cc1OC [Example 18]

Output:
1: < 100 nM; 2: < 100 nM
